- STUDY_SYSTEM: NPA3 (influenza A virus A/Aalborg/INS132/2009 …, UniProt P68042 1-489)
- TEST_NAME: ELISA on recombinant NP
OBSERVATION_TYPE: EC50

{"BINDER": "NP14 (antibody, V domains shown) VH: EVQLVESGGGLVQPGGSLRLSCAASGFTIDNGGIHWVRQAPGKGLEWVASIWPSWGSTSYADSVKGRFTISADTSKNTAYLQMNSLRAEDTAVYYCARFNFGVFGVMDYWGQGTLVTVSS VL: DIQMTQSPSSLSASVGDRVTITCRASQDVDNDVAWYQQKPGKAPKLLIYGPRGLYSGVPSRFSGSGSGTDFTLTISSLQPEDFATYYCQQYSSWPLTFGQGTKVEIKR", "OBSERVATION_TYPE": "EC50", "READING": "19.7 nM"}
